I'd be grateful if you could share measured CC50 at 72 h for these entries.
- assay.method.text: Cytotoxicity against african green monkey Vero cells after 72 hrs by MTT assay
- Format: cell-based
- protocol.conditions: chlorocebus sabaeus, Vero cells

**Query** Bench note: what CC50 at 72 h did CO[C@H]1/C=C/O[C@@]2(C)Oc3c(C)c(O)c4c(O)c(c(/C=N/N5CCN(C)CC5)c(O)c4c3C2=O)NC(=O)/C(C)=C\C=C\[C@H](C)[C@H](O)[C@@H](C)[C@@H](O)[C@@H](C)[C@H](OC(C)=O)[C@@H]1C [RIFAMPIN] show?
**Result** > 500 µg/mL

**Query** // repeat for O=c1[nH]c(=O)n(C2C=CC(O)C2)cc1I (racemic) and report
**Result** > 200 µg/mL

**Query** Next record, please: Cc1cc(=O)[nH]c(=O)n1C1C=CC(O)C1 (racemic)
**Result** > 200 µg/mL

**Query** Here is the next molecule: CCCCCCCCCCCCC#Cc1cn(C2C=CC(O)C2)c(=O)[nH]c1=O (single isomer, unassigned; (-))
**Result** > 100 µg/mL

**Query** Input CCCCCCCCC#Cc1cn(C2C=CC(O)C2)c(=O)[nH]c1=O (racemic)
**Result** > 125 µg/mL

**Query** Okay, and O=c1ccn(C2C=CC(O)C2)c(=O)[nH]1 (racemic) ?
**Result** > 200 µg/mL

**Query** // same read-out, input: CCCCCCCCCCC#Cc1cn(C2C=CC(O)C2)c(=O)[nH]c1=O (racemic)
**Result** > 125 µg/mL

###

- Test system: Mycobacterium tuberculosis
- assay.method.text: Antibacterial activity against Mycobacterium tuberculosis H37Rv under anaerobic condition by BACTEC method
- Assay type: functional
- protocol.conditions: Mycobacterium tuberculosis, H37Rv; read-out: MIC99
property.measured: MIC99 (µg/mL)
Quick note: give the figure in µg/mL, leave out the unit.

**Query** Given the entry `CC[C@@H](CO)NCCN[C@@H](CC)CO` , report its measured MIC99.
**Result** 5

**Query** Proceed to CC1COc2c(N3CCN(C)CC3)c(F)cc3c(=O)c(C(=O)O)cn1c23 (stereo not drawn)
**Result** 2

**Query** What do you get for `CN[C@@H]1[C@H](O[C@H]2[C@H](O[C@H]3[C@H](O)[C@@H](O)[C@H](N=C(N)N)[C@@H](O)[C@@H]3N=C(N)N)O[C@@H](C)[C@]2(O)C=O)O[C@@H](CO)[C@H](O)[C@H]1O` ?
**Result** 0.1

###

- System: Mycobacterium tuberculosis
- assay.method.text: Antibacterial activity against Mycobacterium tuberculosis H37Rv under anaerobic condition by BACTEC method
- Format: functional
- protocol.conditions: Mycobacterium tuberculosis, H37Rv; read-out: MIC99
Hi there, I'd appreciate the recorded MIC99 for every entry that follows.
Put down the number, then write its unit next to it.

**Query** Entry under review: NC(=O)c1cnccn1 [PYRAZINAMIDE] . Reported MIC99?
**Result** 100 µg/mL

**Query** Now the same for `CO[C@H]1/C=C/O[C@@]2(C)Oc3c(C)c(O)c4c(O)c(c(/C=N/N5CCN(C)CC5)c(O)c4c3C2=O)NC(=O)/C(C)=C\C=C\[C@H](C)[C@H](O)[C@@H](C)[C@@H](O)[C@@H](C)[C@H](OC(C)=O)[C@@H]1C`
**Result** 1 µg/mL

**Query** Note, next up: `NNC(=O)c1ccncc1`
**Result** 0.1 µg/mL

**Query** Moving on to CCCCCCCCCCCCC#Cc1cn(C2C=CC(O)C2)c(=O)[nH]c1=O (single isomer, unassigned; (-))
**Result** 5 µg/mL

Source listed as ChEMBL document CHEMBL2157933.
